System: Mycobacterium kansasii 6509/96
Assay: MIC, micro method in Šula's semisynthetic medium, M. kansasii clinical isolate
Assay type: cell-based
Conditions: 6509/96, 504 h, read-out: MIC M. kansasii 6509/96
quantity: log10 MIC (log10 of the value in µM)
Please note: log10 values; quantity MIC; unit µM.

## Task Need log10 MIC, item `CCCCCCCCCCCCSc1nnc(-c2cc([N+](=O)[O-])cc([N+](=O)[O-])c2)o1`
## Result 0.90

## Task Need log10 MIC, item `CCCCCCCCCCNc1nnc(-c2cc([N+](=O)[O-])cc([N+](=O)[O-])c2)o1`
## Result 0.00

## Task Need log10 MIC, item `CCCCCCCCNC(=O)NNC(=O)c1cc([N+](=O)[O-])cc([N+](=O)[O-])c1`
## Result 0.00

## Task Need log10 MIC, item `CCCCCCCCCCCCCCCCCNC(=O)NNC(=O)c1cc([N+](=O)[O-])cc([N+](=O)[O-])c1`
## Result 1.20

## Task Need log10 MIC, item `CCCCCCCCCCNC(=O)NNC(=O)c1cc([N+](=O)[O-])cc([N+](=O)[O-])c1`
## Result 0.60

## Task Need log10 MIC, item `O=[N+]([O-])c1cc(-c2nnc(NCc3ccc(Cl)cc3Cl)o2)cc([N+](=O)[O-])c1`
## Result -0.90

## Task Need log10 MIC, item `CNc1nnc(-c2cc([N+](=O)[O-])cc([N+](=O)[O-])c2)o1`
## Result 1.51

## Task Need log10 MIC, item `CCCCCCCCCCCCCCCNC(=O)NNC(=O)c1cc([N+](=O)[O-])cc([N+](=O)[O-])c1`
## Result 1.20

## Task Need log10 MIC, item `CCCCCCCCCCCCCNc1nnc(-c2cc([N+](=O)[O-])cc([N+](=O)[O-])c2)o1`
## Result -0.90

## Task Need log10 MIC, item `CCCCCCCCCCCCNc1nnc(-c2cc([N+](=O)[O-])cc([N+](=O)[O-])c2)s1`
## Result 0.00

## Task Need log10 MIC, item `CCCCCCCCCNC(=O)NNC(=O)c1cc([N+](=O)[O-])cc([N+](=O)[O-])c1`
## Result 0.00

## Task Need log10 MIC, item `CCCCNc1nnc(-c2cc([N+](=O)[O-])cc([N+](=O)[O-])c2)o1`
## Result 0.30

## Task Need log10 MIC, item `CCCCCCCNc1nnc(-c2cc([N+](=O)[O-])cc([N+](=O)[O-])c2)o1`
## Result -0.90

## Task Need log10 MIC, item `CCCCCCCCNc1nnc(-c2cc([N+](=O)[O-])cc([N+](=O)[O-])c2)o1`
## Result -1.22

## Task Need log10 MIC, item `CCNC(=O)NNC(=O)c1cc([N+](=O)[O-])cc([N+](=O)[O-])c1`
## Result 2.10

## Task Need log10 MIC, item `CCCCCCCCCCCNc1nnc(-c2cc([N+](=O)[O-])cc([N+](=O)[O-])c2)o1`
## Result 0.00

## Task Need log10 MIC, item `CCCCCNC(=O)NNC(=O)c1cc([N+](=O)[O-])cc([N+](=O)[O-])c1`
## Result 0.30

## Task Need log10 MIC, item `CCCCCCCCCCCCCCCCNc1nnc(-c2cc([N+](=O)[O-])cc([N+](=O)[O-])c2)o1`
## Result 0.90

## Task Need log10 MIC, item `CCCCCCCCCNc1nnc(-c2cc([N+](=O)[O-])cc([N+](=O)[O-])c2)o1`
## Result -1.22

## Task Need log10 MIC, item `CCCCCCCCCCCCCCCNc1nnc(-c2cc([N+](=O)[O-])cc([N+](=O)[O-])c2)o1`
## Result 0.30

## Task Need log10 MIC, item `CCCCCCCCCCCCCCCCNC(=O)NNC(=O)c1cc([N+](=O)[O-])cc([N+](=O)[O-])c1`
## Result 1.20

## Task Need log10 MIC, item `CNC(=O)NNC(=O)c1cc([N+](=O)[O-])cc([N+](=O)[O-])c1`
## Result 2.70

## Task Need log10 MIC, item `CCCCCCCCCCCCNC(=S)NNC(=O)c1cc([N+](=O)[O-])cc([N+](=O)[O-])c1`
## Result 0.30

## Task Need log10 MIC, item `COc1ccc(CNc2nnc(-c3cc([N+](=O)[O-])cc([N+](=O)[O-])c3)s2)cc1`
## Result -0.90

## Task Need log10 MIC, item `O=[N+]([O-])c1cc(-c2nnc(NCc3ccc(Br)cc3)o2)cc([N+](=O)[O-])c1`
## Result -0.30

## Task Need log10 MIC, item `CCNc1nnc(-c2cc([N+](=O)[O-])cc([N+](=O)[O-])c2)o1`
## Result 1.51

## Task Need log10 MIC, item `CCCCNC(=O)NNC(=O)c1cc([N+](=O)[O-])cc([N+](=O)[O-])c1`
## Result 0.60

## Task Need log10 MIC, item `CCCCCCCCCCCCCCCCCCNc1nnc(-c2cc([N+](=O)[O-])cc([N+](=O)[O-])c2)o1`
## Result 1.81

## Task Need log10 MIC, item `CCCCCCNc1nnc(-c2cc([N+](=O)[O-])cc([N+](=O)[O-])c2)o1`
## Result -0.30

## Task Need log10 MIC, item `CCCCCCCCCCCCCCCCCCNC(=O)NNC(=O)c1cc([N+](=O)[O-])cc([N+](=O)[O-])c1`
## Result 1.20

## Task Need log10 MIC, item `O=[N+]([O-])c1cc(-c2nnc(NCc3ccc(Cl)cc3Cl)s2)cc([N+](=O)[O-])c1`
## Result -0.30
